- PROTOCOL: Selectivity index, ratio of IC50 for cytotoxicity against African green monkey Vero cells to IC50 for antimalarial activity against multi drug-resistant Plasmodium falciparum K1 infected in human erythrocytes
- Assay type: toxicity, cell-based
- EXPERIMENTAL_CONDITIONS: read-out: Ratio IC50
Reported selectivity ratio values follow for various compounds
// return a plain number; no unit text

{"columns": ["SMILES_STRUCTURE", "selectivity ratio"],
 "data": [
  ["C[C@H](CC[C@H](OC(=O)[C@@H](C)CC(=O)C[C@@H](C)[C@H]1C[C@@H](O)[C@@]2(C)C3=C(C(=O)C[C@]12C)[C@@]1(C)CC[C@@H](O)C(C)(C)[C@@H]1CC3=O)[C@](C)(O)CO)[C@H]1CC[C@@]2(C)C3=CC[C@H]4C(C)(C)C(=O)CC[C@]4(C)C3=CC[C@]12C", 2.2]
]}

The recorded selectivity ratio for `C[C@H](CC[C@H](OC(=O)[C@@H](C)CC(=O)C[C@@H](C)[C@H]1C[C@@H](O)[C@@]2(C)C3=C(C(=O)C[C@]12C)[C@@]1(C)CCC(=O)C(C)(C)[C@@H]1CC3=O)[C@](C)(O)CO)[C@H]1CC[C@@]2(C)C3=CC[C@H]4C(C)(C)C(=O)CC[C@]4(C)C3=CC[C@]12C` is 4.2

Reference for the values: ChEMBL document CHEMBL4699595
